Origin of measurements: patent US11932658B2

molecular target: PAR4 (Homo sapiens, UniProt Q96RI0); construct: expressed in transfected cells; host or cells: HEK293 PAR4 Clone 1.2A (BMS Arctic ID 383940); assay: PAR4 FLIPR assay (antagonism of agonist peptide-induced calcium mobilization); assay type: cell-based
Sequence (Q96RI0 18-385): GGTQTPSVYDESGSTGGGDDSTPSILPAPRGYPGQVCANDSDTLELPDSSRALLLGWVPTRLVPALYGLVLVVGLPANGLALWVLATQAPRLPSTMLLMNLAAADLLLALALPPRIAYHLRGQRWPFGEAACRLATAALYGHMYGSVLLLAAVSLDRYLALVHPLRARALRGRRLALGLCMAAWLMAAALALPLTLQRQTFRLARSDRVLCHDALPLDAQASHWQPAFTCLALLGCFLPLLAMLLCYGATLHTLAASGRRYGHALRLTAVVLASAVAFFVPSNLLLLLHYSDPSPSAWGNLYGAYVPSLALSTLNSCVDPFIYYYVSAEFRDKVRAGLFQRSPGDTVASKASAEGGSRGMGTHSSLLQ
pIC50: −log10 of the molar value.
experimental readout: pIC50

COC(=O)NC[C@@H]1Cc2c(c(F)cc3nc(-c4cc(C)cc5nc(OC)cnc45)sc23)O1 ... 8.54

I: COc1cnc2c(-c3nc4c(C)cc5c(c4s3)OCC(COC(=O)Nc3ccc(-c4cccs4)nc3)O5)cc(C)cc2n1 (stereo not drawn)
II: COc1cnc2c(-c3nc4cc(F)c5c(c4s3)C[C@H](COC(=O)Nc3ccc4c(c3)C(=O)NC4)O5)cc(C)cc2n1
Query: Returns: the argument ( I or II ) having the larger pIC50. Which one? Tell me its label.
Response: II
(II: 8.64, I: 6.89)

###

Target: PAR4 (Homo sapiens)
Construct: expressed in transfected cells; host or cells: HEK293 PAR4 Clone 1.2A (BMS Arctic ID 383940)
Assay: PAR4 FLIPR assay (antagonism of agonist peptide-induced calcium mobilization)
Type: cell-based
Source text: The FLIPR assay is an exemplary in vitro assay for measuring the activity of the PAR4 antagonists of the present invention. In this assay, intracellular calcium mobilization is induced in PAR4 expressing cells by a PAR4 agonist and calcium mobilization is monitored. HEK293 cells stably expressing PAR4 were generated by a standard method of transfection of human PAR4 (F2R23) cDNA expression vector and selected based on PAR4 protein expression or mRNA expression. […]
experimental readout: IC50 (nM)

COc1cnc2c(-c3nc4cc(F)c5c(c4s3)C[C@@H](CNC(=O)Nc3ccccc3)O5)cc(C)cc2n1 ... 7
COc1cnc2c(-c3nc4c(C(O)C(C)(C)C)cc5c(c4s3)OCCO5)cc(C)cc2n1 (stereo not drawn) [Example 262] ... 2.3
COc1ccc(NC(=O)OC[C@H]2COc3c(cc(Cl)c4nc(-c5cc(C)cc6nc(OC)cnc56)sc34)O2)cn1 ... 1.6
COc1ccc(NC(=O)OCC2COc3c(cc(C)c4nc(-c5cc(CO)cc6nc(OC)cnc56)sc34)O2)cn1 (stereo not drawn) ... 2

A: CCOc1cnc2c(-c3nc4cc(F)c5c(c4s3)C[C@H](COC(=O)Nc3cnc(C)nc3)O5)cc(Cl)cc2c1
B: COc1cnc2c(-c3nc4cc(F)c5c(c4s3)C[C@@H](CNC(=O)N3CCOCC3)O5)cc(C)cc2n1
C: COc1cnc2c(-c3nc4c(C)cc5c(c4s3)OCC(COC(=O)Nc3ccc(OCCN(C)C)nc3)O5)cc(C)cc2n1 (stereo not drawn)
Query: Please list these compounds in decreasing order of IC50. Please respond by ranking the labels in the order requested.
Response: B, C, A
(B: 8.1 nM, C: 4 nM, A: 2.2 nM)

A: COc1ccc(NC(=O)OC[C@H]2Cc3c(c(F)cc4nc(-c5cc(C)cc6nc(OC)cnc56)sc34)O2)cn1
B: COc1cnc2c(-c3nc4c(C)cc5c(c4s3)OCC(COC(=O)Nc3cnc(F)c(C)c3)O5)cc(C)cc2n1 (stereo not drawn)
Query: Between A and B , which one shows the smaller IC50 number? Field: selected label. Fill in the label of the entry you choose.
Response: A
(A: 1.6 nM, B: 2.5 nM)

1: COc1cnc2c(-c3nc4c(C)cc5c(c4s3)OC[C@H](COC(=O)Nc3ccnc(C)c3)O5)cc(CO)cc2n1
2: COc1cnc2c(-c3cc4c5c(ccc4o3)O[C@@H](COC(=O)Nc3ccc(C)nc3)CO5)cc(C)cc2n1
3: COc1cnc2c(-c3nc4cc(F)c5c(c4s3)C[C@H](COC(=O)Nc3cccc(C#N)c3)O5)cc(C)cc2n1
Query: Put these in order: smallest IC50 first, largest last. Labels, ranked as asked.
Response: 3, 2, 1
(3: 0.7 nM, 2: 1.3 nM, 1: 2 nM)
